Tested on: C57BL/6 mice, intracerebral ependymoblastoma, median survival T/C
Protocol Details: NCI In Vivo Anticancer Drug Screen. Data for tumor model Ependymoblastoma (intracerebral) in C57BL/6 mice
Condition Details: endpoint: median survival time; dose: 0.8 mg/kg/injection; schedule: Q01DX005 (ip); vehicle: saline; higher = longer survival
Inconclusive results and toxic doses are left out.
Record form. Attribute: T/C. Fill in for each entry.

Given [N-]=[N+]=CC(=O)CCC(N)C(=O)O (stereo unspecified) , state its recorded T/C.
121 % of control

Given CCC1CC2CC(c3cc4c(cc3OC)N(C)C3C(O)(C(=O)OC)C(OC(C)=O)C5(CC)C=CCN6CCC43C65)c3[nH]c4ccccc4c3CCN(C1)C2 (stereo unspecified) , state its recorded T/C.
107 % of control

Given "COc1cc2c(c(OC)c1OC)-c1ccc(OC)c(=O)cc1[C@@H](NC(C)=O)CC2" , state its recorded T/C.
103 % of control

Given CCC1(O)CC2CN(CCc3c([nH]c4ccccc34)C(C(=O)OC)(c3cc4c(cc3OC)N(C)C3C(O)(C(=O)NCCO)C(O)C5(CC)C=CCN6CCC43C65)C2)C1 (stereo unspecified) , state its recorded T/C.
108 % of control

Given CC[C@]12CN3CCc4c([nH]c5ccccc45)[C@@](C(=O)OC)(c4cc5c(cc4OC)N(C)[C@H]4[C@@](O)(C(=O)OC)[C@H](OC(C)=O)[C@]6(CC)C=CCN7CC[C@]54[C@@H]76)CC(C3)[C@H]1O2 (stereo partly specified) , state its recorded T/C.
103 % of control

Given "CCC1=C[C@H]2CN(CCc3c([nH]c4ccccc34)[C@@](C(=O)OC)(c3cc4c(cc3OC)N(C)[C@H]3[C@@](O)(C(=O)OC)[C@H](OC(C)=O)[C@]5(CC)C=CCN6CC[C@]43[C@@H]65)C2)C1" , state its recorded T/C.
102 % of control

---

Record form. Attribute: T/C. Fill in for each entry.
Tested on: C57BL/6 mice, intracerebral ependymoblastoma, median survival T/C
Protocol Details: NCI In Vivo Anticancer Drug Screen. Data for tumor model Ependymoblastoma (intracerebral) in C57BL/6 mice
Condition Details: endpoint: median survival time; dose: 16.0 mg/kg/injection; schedule: Q#A X002 (ip); vehicle: Klucel (hydroxypropylcellulose) (HPC); higher = longer survival
Toxic doses and inconclusive results are not listed.

Given "COc1cc(NS(C)(=O)=O)ccc1Nc1c2ccccc2nc2ccccc12" , state its recorded T/C.
90 % of control

Given "Cc1[nH]c(=O)[nH]c(=O)c1N(CCF)CCCl" , state its recorded T/C.
99 % of control

Given CCOC(=O)C(CC(C)C)NC(=O)C(Cc1ccc(N(CCCl)CCCl)cc1)NC(C)=O (centres undefined) , state its recorded T/C.
110 % of control

Given "CCOC(=O)CNC(=O)CCCCSc1ncnc2nc[nH]c12" , state its recorded T/C.
108 % of control

---

System: C57BL/6 mice, intracerebral ependymoblastoma, median survival T/C
Protocol Details: NCI In Vivo Anticancer Drug Screen. Data for tumor model Ependymoblastoma (intracerebral) in C57BL/6 mice
Condition Details: endpoint: median survival time; dose: 0.5 mg/kg/injection; schedule: Q01DX005 (ip); vehicle: saline; higher = longer survival
Toxic doses and inconclusive results are not listed.
Record form. Attribute: T/C. Fill in for each entry.

Provide the documented T/C with C57BL/6 mice, intracerebral ependymoblastoma, median survival T/C as the system for COc1ccc(CC2C(=O)NC(C)C(=O)N(C)C3C(=O)N(C)C(Cc4ccc(O)c(c4)Oc4ccc(cc4)C3O)C(=O)NC(C)C(=O)NC(C)C(=O)N2C)cc1 (centres undefined)
98 % of control

Provide the documented T/C with C57BL/6 mice, intracerebral ependymoblastoma, median survival T/C as the system for "Cc1c2cc[n+](C)cc2c(C)c2c1[nH]c1ccc(O)cc12"
101 % of control

Provide the documented T/C with C57BL/6 mice, intracerebral ependymoblastoma, median survival T/C as the system for COc1cc([C@@H]2c3cc4c(cc3[C@@H](OC3OC5CO[C@@H](c6cccs6)OC5C(O)C3O)[C@H]3COC(=O)[C@H]23)OCO4)cc(OC)c1O (some centres undefined)
99 % of control

Provide the documented T/C with C57BL/6 mice, intracerebral ependymoblastoma, median survival T/C as the system for COc1cccc2c1C(=O)c1c(O)c3c(c(O)c1C2=O)C[C@@](O)(C(=O)CO)C[C@@H]3OC1CC(N)C(O)C(C)O1 (some centres undefined)
108 % of control

---

Record form. Attribute: T/C. Fill in for each entry.
Tested on: C57BL/6 mice, intracerebral ependymoblastoma, median survival T/C
Protocol Details: NCI In Vivo Anticancer Drug Screen. Data for tumor model Ependymoblastoma (intracerebral) in C57BL/6 mice
Condition Details: endpoint: median survival time; dose: 64.0 mg/kg/injection; schedule: Q01DX005 (ip); vehicle: saline; higher = longer survival
Inconclusive results and toxic doses are left out.

Given "CC/C(=C(/CC)c1ccc(O)cc1)c1ccc(O)cc1" , state its recorded T/C.
110 % of control

Given CCN(CC)CCCC(C)Nc1c2ccc(Cl)cc2nc2ccc(OC)cc12 (stereo not given) , state its recorded T/C.
95 % of control

Given "c1cc2n(n1)CCN2" , state its recorded T/C.
100 % of control

Given O=c1ccn(C2OC(CO)C(O)C2O)c(=O)[nH]1 (stereo not given) , state its recorded T/C.
93 % of control

Given "CCN(CC)CCNc1ccc(CO)c2sc3ccccc3c(=O)c12" , state its recorded T/C.
119 % of control

---

Test system: C57BL/6 mice, intracerebral ependymoblastoma, median survival T/C
Protocol Details: NCI In Vivo Anticancer Drug Screen. Data for tumor model Ependymoblastoma (intracerebral) in C57BL/6 mice
Condition Details: endpoint: median survival time; dose: 64.0 mg/kg/injection; schedule: Q01DX001 (oral); vehicle: Klucel (hydroxypropylcellulose) (HPC); higher = longer survival
Toxic doses and inconclusive results are not listed.
Record form. Attribute: T/C. Fill in for each entry.

Given "O=NN(CCCl)C(=O)NC1CCCCC1" , state its recorded T/C.
113 % of control

Given OC(CBr)C(O)C(O)C(O)CBr (centres undefined) , state its recorded T/C.
99 % of control

Given O=NN(CCCl)C(=O)NC1CCC(=O)NC1=O (centres undefined) , state its recorded T/C.
100 % of control

Given CC1CCC(NC(=O)N(CCCl)N=O)CC1 (centres undefined) , state its recorded T/C.
102 % of control

---

System: C57BL/6 mice, intracerebral ependymoblastoma, median survival T/C
Protocol Details: NCI In Vivo Anticancer Drug Screen. Data for tumor model Ependymoblastoma (intracerebral) in C57BL/6 mice
Condition Details: endpoint: median survival time; dose: 2.0 mg/kg/injection; schedule: Q01DX005 (ip); vehicle: saline with Tween-80; higher = longer survival
Inconclusive results and toxic doses are left out.
Record form. Attribute: T/C. Fill in for each entry.

Given "Cc1nc(N)nc(N)c1-c1ccc(Cl)c(Cl)c1" , state its recorded T/C.
117 % of control

Given "O=C1c2c(O)ccc(O)c2C(=O)c2c(NCCNCCO)ccc(NCCNCCO)c21" , state its recorded T/C.
96 % of control

Given "N[C@H](C(=O)O)[C@@H]1CC(Cl)=NO1" , state its recorded T/C.
94 % of control

Given "O=C1c2ccccc2C(=O)c2c(NCCNCCO)ccc(NCCNCCO)c21" , state its recorded T/C.
100 % of control

Given "O=NN(CCCl)C(=O)NCCCl" , state its recorded T/C.
113 % of control

Given COc1cccc2c1C(=O)c1c(O)c3c(c(O)c1C2=O)C[C@@](O)(/C(C)=N/NC(=O)c1ccccc1)C[C@@H]3OC1CC(N)C(O)C(C)O1 (stereo partly specified) , state its recorded T/C.
100 % of control

---

Test system: C57BL/6 mice, intracerebral ependymoblastoma, median survival T/C
Protocol Details: NCI In Vivo Anticancer Drug Screen. Data for tumor model Ependymoblastoma (intracerebral) in C57BL/6 mice
Condition Details: endpoint: median survival time; dose: 16.0 mg/kg/injection; schedule: Q01DX001 (ip); vehicle: Klucel (hydroxypropylcellulose) (HPC); higher = longer survival
Toxic doses and inconclusive results are not listed.
Record form. Attribute: T/C. Fill in for each entry.

Given O=CC(NC(=O)N(CCCl)N=O)C(O)C(O)C(O)CO (centres undefined) , state its recorded T/C.
114 % of control

Given "O=NN(CCCl)C(=O)NC1CCCCC1" , state its recorded T/C.
105 % of control

Given "O=C1c2ccccc2C(=O)c2c(NCCNCCO)ccc(NCCNCCO)c21" , state its recorded T/C.
98 % of control

Given CC(CN1CC(=O)NC(=O)C1)N1CC(=O)NC(=O)C1 (centres undefined) , state its recorded T/C.
87 % of control

---

Test system: C57BL/6 mice, intracerebral ependymoblastoma, median survival T/C
Protocol Details: NCI In Vivo Anticancer Drug Screen. Data for tumor model Ependymoblastoma (intracerebral) in C57BL/6 mice
Condition Details: endpoint: median survival time; dose: 4.0 mg/kg/injection; schedule: Q01DX005 (ip); vehicle: Klucel (hydroxypropylcellulose) (HPC)
Toxic doses and inconclusive results are not listed. Rule for the calls: active = survival T/C of 150% or more; inactive = T/C below 125% in these data.
Field 'call' accepts t for active, f for inactive

Assay result, entry "COc1cc(NS(C)(=O)=O)ccc1Nc1c2ccccc2nc2ccccc12" — outcome?
f

Assay result, entry "O=C1NC2(CCCCC2)C(=O)N1CCN(CCCl)CCCl" — outcome?
f

Assay result, entry O=NN(CCCl)C(=O)NC1CCC(=O)NC1=O (centres undefined) — outcome?
t

Assay result, entry "C[n+]1ccc(Nc2ccc(NC(=O)c3ccc(Nc4cc[n+](C)c5ccc(N)cc45)cc3)cc2)cc1" — outcome?
f
